# System: HCC4006 NSCLC cell line
# assay-details: Cellular growth inhibition (CellTiter Glo viability assay)
# Assay type: cell-based
# test-conditions: Homo sapiens, HCC4006, read-out: Sensitivity Dasatinib
pIC50: −log10 of the molar value.
parameter-measured: pIC50

q: Which value of pIC50 has been reported for `Cc1nc(Nc2ncc(C(=O)Nc3c(C)cccc3Cl)s2)cc(N2CCN(CCO)CC2)n1` in the records?
a: > 6.00
